Assay: in vitro
Format: cell-based, human
Details: human, differentiated hl-60 cells, 300 μmol/L, about 24 hours, PMA-differentiated HL-60 cells, LDH; no-treatment 0%, cell lysis buffer 100%; read-out: cytotoxicity (%) Evaluation compound results
# cytotoxicity at 24 h, 300 µM per entry
Please state the number and follow it with the unit.

These solved cases illustrate the format of a correct answer.
>  <COMPOUND>
CC1(C)OCC(NC(=O)CCCC(=O)OCOP(=O)([O-])OC[N+]2(CCCCOc3ccc4ccc(=O)[nH]c4c3)CCN(c3cccc4sccc34)CC2)CO1 [EX 74]

>  <cytotoxicity at 24 h, 300 µM>
-1%

$$$$
>  <COMPOUND>
Cc1ncccc1C(=O)OCOP(=O)([O-])OC[N+]1(CCCCOc2ccc3ccc(=O)[nH]c3c2)CCN(c2cccc3sccc23)CC1 [EX 81]

>  <cytotoxicity at 24 h, 300 µM>
8%

$$$$
>  <COMPOUND>
CC(C)COC(=O)[C@@H](C)OP(=O)([O-])OC[N+]1(CCCCOc2ccc3ccc(=O)[nH]c3c2)CCN(c2cccc3sccc23)CC1 [EX 107]

>  <cytotoxicity at 24 h, 300 µM>
-6%

$$$$
>  <COMPOUND>
COCC1CCC(COP(=O)([O-])OC[N+]2(CCCCOc3ccc4ccc(=O)[nH]c4c3)CCN(c3cccc4sccc34)CC2)CC1 (stereo not drawn) [EX 54]

>  <cytotoxicity at 24 h, 300 µM>
-10%

$$$$
>  <COMPOUND>
O=c1ccc2ccc(OCCCC[N+]3(COP(=O)([O-])OCC4(CO)CC4)CCN(c4cccc5sccc45)CC3)cc2[nH]1 [EX 47]

>  <cytotoxicity at 24 h, 300 µM>
-5%

$$$$

Please turn your attention to the following entry.
Ask: If you can, please state the reported cytotoxicity at 24 h, 300 µM value of CC(C)(C)C(=O)OCCCCCCOP(=O)([O-])OC[N+]1(CCCCOc2ccc3ccc(=O)[nH]c3c2)CCN(c2cccc3sccc23)CC1 [EX 102] .
Result: 16%

----------
Test: in vitro
Type: cell-based, human
Conditions: human, differentiated hl-60 cells, 300 μmol/L, about 24 hours, PMA-differentiated HL-60 cells, LDH; no-treatment 0%, cell lysis buffer 100%; read-out: cytotoxicity (%) Evaluation compound results
PROPERTY_NAME: cytotoxicity at 24 h, 300 µM
Units required after the number.

Solved entries:
>  <LINE_NOTATION>
COCCOC(=O)OCOP(=O)([O-])OC[N+]1(CCCCOc2ccc3ccc(=O)[nH]c3c2)CCN(c2cccc3sccc23)CC1

>  <RESULT>
-7%

$$$$
>  <LINE_NOTATION>
CCCCOCCOCCOC(=O)OCOP(=O)([O-])OC[N+]1(CCCCOc2ccc3ccc(=O)[nH]c3c2)CCN(c2cccc3sccc23)CC1

>  <RESULT>
-4%

$$$$
>  <LINE_NOTATION>
O=c1ccc2ccc(OCCCC[N+]3(COP(=O)([O-])OCCCCO)CCN(c4cccc5sccc45)CC3)cc2[nH]1

>  <RESULT>
-6%

$$$$
>  <LINE_NOTATION>
CCOCCOCCOCCOC(=O)OCOP(=O)([O-])OC[N+]1(CCCCOc2ccc3ccc(=O)[nH]c3c2)CCN(c2cccc3sccc23)CC1

>  <RESULT>
-9%

$$$$
>  <LINE_NOTATION>
O=c1ccc2ccc(OCCCC[N+]3(COP(=O)([O-])OCC4CC4)CCN(c4cccc5sccc45)CC3)cc2[nH]1

>  <RESULT>
17%

$$$$
>  <LINE_NOTATION>
CCCCOCCOCCOCCOC(=O)OCOP(=O)([O-])OC[N+]1(CCCCOc2ccc3ccc(=O)[nH]c3c2)CCN(c2cccc3sccc23)CC1

>  <RESULT>
-7%

$$$$

Okay, next one:
Ask: Give its cytotoxicity at 24 h, 300 µM value. Item: O=c1ccc2ccc(OCCCC[N+]3(COP(=O)([O-])O)CCN(c4cccc5sccc45)CC3)cc2[nH]1
Result: -7%

----------
Below, each entry is listed alongside its reported cytotoxicity at 24 h, 300 µM.
Assay: in vitro
Type: cell-based, human
Conditions: human, differentiated hl-60 cells, 300 μmol/L, about 24 hours, PMA-differentiated HL-60 cells, LDH; no-treatment 0%, cell lysis buffer 100%; read-out: cytotoxicity (%) Evaluation compound results
Give the value, in units of %, as a plain number.

Answered examples (2):
>  <MOLECULE>
O=C(OCOP(=O)([O-])OC[N+]1(CCCCOc2ccc3ccc(=O)[nH]c3c2)CCN(c2cccc3sccc23)CC1)N1CCOCC1 [EX 160]

>  <cytotoxicity at 24 h, 300 µM (%)>
9

$$$$
>  <MOLECULE>
CCOC(=O)CCCCCOP(=O)([O-])OC[N+]1(CCCCOc2ccc3ccc(=O)[nH]c3c2)CCN(c2cccc3sccc23)CC1 [EX 61]

>  <cytotoxicity at 24 h, 300 µM (%)>
5

$$$$

Next:
Ask: Can you share its cytotoxicity at 24 h, 300 µM? I mean this molecule: CC(=O)OCCCCCCOP(=O)([O-])OC[N+]1(CCCCOc2ccc3ccc(=O)[nH]c3c2)CCN(c2cccc3sccc23)CC1 [EX 101]
Result: 16

----------
Experiment: in vitro
Type: cell-based, human
Details: human, differentiated hl-60 cells, 300 μmol/L, about 24 hours, PMA-differentiated HL-60 cells, LDH; no-treatment 0%, cell lysis buffer 100%; read-out: cytotoxicity (%) Evaluation compound results
PROPERTY_NAME: cytotoxicity at 24 h, 300 µM (%)
Number in %, nothing else.

Please review the following examples before continuing.
>  <MOLECULE>
CCOCCOCCOC(=O)OCOP(=O)([O-])OC[N+]1(CCCCOc2ccc3ccc(=O)[nH]c3c2)CCN(c2cccc3sccc23)CC1

>  <PROPERTY_NAME>
cytotoxicity at 24 h, 300 µM

>  <NUMERIC_VALUE>
-7

$$$$
>  <MOLECULE>
COCCOCOCCCCOP(=O)([O-])OC[N+]1(CCCCOc2ccc3ccc(=O)[nH]c3c2)CCN(c2cccc3sccc23)CC1

>  <PROPERTY_NAME>
cytotoxicity at 24 h, 300 µM

>  <NUMERIC_VALUE>
-3

$$$$

Next, consider the following molecule.
Ask: Reported cytotoxicity at 24 h, 300 µM for CCCCCCCC(=O)OC(C)OP(=O)([O-])OC[N+]1(CCCCOc2ccc3ccc(=O)[nH]c3c2)CCN(c2cccc3sccc23)CC1 (stereo not drawn) : what is it?
Result: -5

----------
Assay: in vitro
Type: cell-based, human
Conditions: human, differentiated hl-60 cells, 300 μmol/L, about 24 hours, PMA-differentiated HL-60 cells, LDH; no-treatment 0%, cell lysis buffer 100%; read-out: cytotoxicity (%) Evaluation compound results
# cytotoxicity at 24 h, 300 µM per record follows
Field format: number, assumed %, no unit text.

>  <LINE_NOTATION>
O=C(OCCCCCCOP(=O)([O-])OC[N+]1(CCCCOc2ccc3ccc(=O)[nH]c3c2)CCN(c2cccc3sccc23)CC1)c1ccccc1

>  <PROPERTY_NAME>
cytotoxicity at 24 h, 300 µM

>  <NUMERIC_VALUE>
4

$$$$
>  <LINE_NOTATION>
CCC(=O)OCOP(=O)([O-])OC[N+]1(CCCCOc2ccc3ccc(=O)[nH]c3c2)CCN(c2cccc3sccc23)CC1

>  <PROPERTY_NAME>
cytotoxicity at 24 h, 300 µM

>  <NUMERIC_VALUE>
13

$$$$
>  <LINE_NOTATION>
O=c1ccc2ccc(OCCCC[N+]3(COP(=O)([O-])OCCN4CCC(F)(F)CC4)CCN(c4cccc5sccc45)CC3)cc2[nH]1

>  <PROPERTY_NAME>
cytotoxicity at 24 h, 300 µM

>  <NUMERIC_VALUE>
2

$$$$
>  <LINE_NOTATION>
CC(C)OC(=O)OCOP(=O)([O-])OC[N+]1(CCCCOc2ccc3ccc(=O)[nH]c3c2)CCN(c2cccc3sccc23)CC1

>  <PROPERTY_NAME>
cytotoxicity at 24 h, 300 µM

>  <NUMERIC_VALUE>
1

$$$$

Ask: Which value of cytotoxicity at 24 h, 300 µM has been reported for O=C(O)CCOP(=O)([O-])OC[N+]1(CCCCOc2ccc3ccc(=O)[nH]c3c2)CCN(c2cccc3sccc23)CC1 in the records?
Result: -7

Ask: Endpoint output: cytotoxicity at 24 h, 300 µM of CCOCCOP(=O)([O-])OC[N+]1(CCCCOc2ccc3ccc(=O)[nH]c3c2)CCN(c2cccc3sccc23)CC1 . Value?
Result: -8

Ask: Reported cytotoxicity at 24 h, 300 µM for CCC(=O)OP(=O)([O-])OC[N+]1(CCCCOc2ccc3ccc(=O)[nH]c3c2)CCN(c2cccc3sccc23)CC1 : what is it?
Result: -5

Ask: // query cytotoxicity at 24 h, 300 µM value for entry CC(C)=CCC/C(C)=C/COP(=O)([O-])OC[N+]1(CCCCOc2ccc3ccc(=O)[nH]c3c2)CCN(c2cccc3sccc23)CC1
Result: 2

Ask: # input molecule: CC(C)C(=O)OCOP(=O)([O-])OC[N+]1(CCCCOc2ccc3ccc(=O)[nH]c3c2)CCN(c2cccc3sccc23)CC1 ; wanted: its cytotoxicity at 24 h, 300 µM
Result: 10

Ask: Give the measured cytotoxicity at 24 h, 300 µM of O=C(O)CCCCCOC(=O)OCOP(=O)([O-])OC[N+]1(CCCCOc2ccc3ccc(=O)[nH]c3c2)CCN(c2cccc3sccc23)CC1 .
Result: -9

Ask: What measured cytotoxicity at 24 h, 300 µM goes with COCC(=O)OCOP(=O)([O-])OC[N+]1(CCCCOc2ccc3ccc(=O)[nH]c3c2)CCN(c2cccc3sccc23)CC1 ?
Result: 14

Ask: // query cytotoxicity at 24 h, 300 µM value for entry CCOC(=O)CC(C)(C)CC(=O)OCOP(=O)([O-])OC[N+]1(CCCCOc2ccc3ccc(=O)[nH]c3c2)CCN(c2cccc3sccc23)CC1
Result: 5

Ask: Consider the molecule O=C(OCCCO)OCOP(=O)([O-])OC[N+]1(CCCCOc2ccc3ccc(=O)[nH]c3c2)CCN(c2cccc3sccc23)CC1 and give its measured cytotoxicity at 24 h, 300 µM.
Result: 10

Ask: Any idea what cytotoxicity at 24 h, 300 µM was measured for O=c1ccc2ccc(OCCCC[N+]3(COP(=O)([O-])OCCOCC4CC4)CCN(c4cccc5sccc45)CC3)cc2[nH]1 ?
Result: -1
